Below is a list of entries, each paired with its recorded koff value.
# Test System: T1, histidine-tagged human SORT1 (R&D Systems) (human, UniProt Q99523 78-755)
# T1 construct: Bought recombinant protein; also called His-tagged human SORT1; not shown: histidine tag
# T1 sequence: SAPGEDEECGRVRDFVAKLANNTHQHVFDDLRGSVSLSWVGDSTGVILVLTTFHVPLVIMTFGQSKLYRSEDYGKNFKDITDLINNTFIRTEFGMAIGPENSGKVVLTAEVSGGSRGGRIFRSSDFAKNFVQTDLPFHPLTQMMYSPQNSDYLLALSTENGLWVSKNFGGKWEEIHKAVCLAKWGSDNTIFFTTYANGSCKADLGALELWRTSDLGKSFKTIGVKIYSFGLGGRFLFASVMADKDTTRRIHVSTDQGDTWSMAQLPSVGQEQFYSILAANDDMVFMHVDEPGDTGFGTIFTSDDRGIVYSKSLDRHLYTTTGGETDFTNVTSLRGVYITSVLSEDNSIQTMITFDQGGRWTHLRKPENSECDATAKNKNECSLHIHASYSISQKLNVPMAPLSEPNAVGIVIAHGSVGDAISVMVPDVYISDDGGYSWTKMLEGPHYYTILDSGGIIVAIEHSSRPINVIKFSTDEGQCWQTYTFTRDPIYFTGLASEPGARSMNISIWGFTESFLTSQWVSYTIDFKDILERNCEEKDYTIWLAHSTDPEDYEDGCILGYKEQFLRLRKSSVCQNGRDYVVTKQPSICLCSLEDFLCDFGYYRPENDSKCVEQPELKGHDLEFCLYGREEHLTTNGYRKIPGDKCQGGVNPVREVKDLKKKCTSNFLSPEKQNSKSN
# Assay Comment: BLI (Octet RED96), antibody captured on anti-human IgG Fc sensor, 20 nM His-tagged human SORT1, 1:1 fit
State just the number; it will be interpreted in s⁻¹.

Check out these entries, answers already filled in.
S-60-15.6 [N33H] (antibody, human IgG1, kappa, L234A L235A, V domains shown, huIgG1 LALAPS) VH: QVQLQESGPGLVKPSETLSLTCAVSGYSISSGYYWGWIRQPPGKGLEWIGTIYHSGSTYYNPSLKSRVTISVDTSKNQFSLKLSSVTAADTAVYYCARQGSIKQGYYGMDVWGQGTTVTVSS VL: DIVMTQSPLSLPVTPGEPASISCRSSQSLLRSHGYNYLDWYLQKPGQSPQLLIYLGSNRASGVPDRFSGSGSGTDFTLKISRAEAEDVGVYYCMQQQEAPLTFGGGTKVEIKR
0.00046
S-60-15.13 [N33I] (antibody, human IgG1, kappa, L234A L235A, V domains shown, huIgG1 LALAPS) VH: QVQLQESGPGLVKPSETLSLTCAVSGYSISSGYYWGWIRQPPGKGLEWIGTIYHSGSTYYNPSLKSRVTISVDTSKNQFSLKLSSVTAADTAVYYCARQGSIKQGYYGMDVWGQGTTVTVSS VL: DIVMTQSPLSLPVTPGEPASISCRSSQSLLRSIGYNYLDWYLQKPGQSPQLLIYLGSNRASGVPDRFSGSGSGTDFTLKISRAEAEDVGVYYCMQQQEAPLTFGGGTKVEIKR
0.000228
S-60-15.11 [N33W] (antibody, human IgG1, kappa, L234A L235A, V domains shown, huIgG1 LALAPS) VH: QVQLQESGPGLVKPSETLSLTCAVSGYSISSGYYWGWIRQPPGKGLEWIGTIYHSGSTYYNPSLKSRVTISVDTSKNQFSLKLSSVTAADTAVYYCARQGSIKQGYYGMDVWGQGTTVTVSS VL: DIVMTQSPLSLPVTPGEPASISCRSSQSLLRSWGYNYLDWYLQKPGQSPQLLIYLGSNRASGVPDRFSGSGSGTDFTLKISRAEAEDVGVYYCMQQQEAPLTFGGGTKVEIKR
0.000579
S-60-15.15 [N33A] (antibody, human IgG1, kappa, L234A L235A, V domains shown, huIgG1 LALAPS) VH: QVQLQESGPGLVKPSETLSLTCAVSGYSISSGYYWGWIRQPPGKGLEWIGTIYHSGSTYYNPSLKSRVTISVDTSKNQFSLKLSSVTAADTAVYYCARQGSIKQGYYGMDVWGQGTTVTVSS VL: DIVMTQSPLSLPVTPGEPASISCRSSQSLLRSAGYNYLDWYLQKPGQSPQLLIYLGSNRASGVPDRFSGSGSGTDFTLKISRAEAEDVGVYYCMQQQEAPLTFGGGTKVEIKR
0.000315

What value of koff has been recorded for this entry: S-60-15.12 [N33F] (antibody, human IgG1, kappa, L234A L235A, V domains shown, huIgG1 LALAPS) VH: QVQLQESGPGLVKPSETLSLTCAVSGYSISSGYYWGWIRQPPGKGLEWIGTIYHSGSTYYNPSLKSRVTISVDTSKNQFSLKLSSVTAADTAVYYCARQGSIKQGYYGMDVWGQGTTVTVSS VL: DIVMTQSPLSLPVTPGEPASISCRSSQSLLRSFGYNYLDWYLQKPGQSPQLLIYLGSNRASGVPDRFSGSGSGTDFTLKISRAEAEDVGVYYCMQQQEAPLTFGGGTKVEIKR
0.000816
